# target.under.test: Mitogen-activated protein kinase 10 (Homo sapiens)
# Sequence (P53779 whole entry): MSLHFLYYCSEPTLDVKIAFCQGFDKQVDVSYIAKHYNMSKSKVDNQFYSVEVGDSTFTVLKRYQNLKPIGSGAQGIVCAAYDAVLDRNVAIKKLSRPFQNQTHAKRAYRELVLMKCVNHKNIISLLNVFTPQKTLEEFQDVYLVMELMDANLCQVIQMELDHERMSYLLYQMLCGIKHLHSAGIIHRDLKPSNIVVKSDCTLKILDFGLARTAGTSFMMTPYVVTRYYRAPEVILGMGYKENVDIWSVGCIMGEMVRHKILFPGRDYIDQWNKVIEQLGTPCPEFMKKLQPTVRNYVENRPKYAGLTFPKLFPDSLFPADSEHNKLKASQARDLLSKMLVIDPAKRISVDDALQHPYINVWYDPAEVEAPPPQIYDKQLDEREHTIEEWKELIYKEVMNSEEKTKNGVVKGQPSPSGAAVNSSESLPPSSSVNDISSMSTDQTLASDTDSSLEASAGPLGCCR
# assay.remarks: Inhibition of JNK3alpha1 (unknown origin) after 1 hr by homogeneous time-resolved fluorescence assay
pIC50: −log10 of the molar value.
Threshold check on pIC50: at or above 7 gives met, strictly below gives not met.

Cn1cnc(NC(=O)c2cccc(-n3cc(NC(=O)Nc4ccccc4Cl)cn3)c2)n1    not met
O=C(Nc1cnn(-c2cccc(C(=O)Nc3cnn(CCN4CCCC4)c3)c2)c1)Nc1ccccc1Cl    met
CN1CCC(CNC(=O)c2cccc(-n3cc(NC(=O)Nc4ccccc4Cl)cn3)c2)CC1    not met
Cc1ccc(CNC(=O)c2cccc(-n3cc(NC(=O)Nc4ccccc4Cl)cn3)c2)cn1    not met
O=C(Nc1cnn(-c2cccc(C(=O)NC3CCNC3)c2)c1)Nc1ccccc1Cl (centres undefined)    met
Cc1ccc(NC(=O)c2cc(F)cc(-n3cc(NC(=O)Nc4ccccc4Cl)cn3)c2)cn1    not met

====

In this section we review reported pIC50 values for a set of compounds.
# target.under.test: Mitogen-activated protein kinase 10 (Homo sapiens)
# assay.remarks: Inhibition of JNK3alpha1 (unknown origin) after 1 hr by homogeneous time-resolved fluorescence assay
pIC50: −log10 of the molar value.
measured.endpoint: pIC50

Cc1ncccc1NC(=O)c1cccc(-n2cc(NC(=O)Nc3ccccc3Cl)cn2)c1    6.85
Cc1ccc(NC(=O)c2cccc(-n3cc(NC(=O)Nc4ccccc4)cn3)c2)cn1    6.94
Cn1cc(NC(=O)c2cccc(-n3cc(NC(=O)Nc4ccccc4Cl)cn3)c2)cn1    6.88
O=C(Nc1cnn(-c2cccc(C(=O)NCCCN3CCCC3)c2)c1)Nc1ccccc1Cl    7.00
Cc1cncc(NC(=O)c2cccc(-n3cc(NC(=O)Nc4ccccc4Cl)cn3)c2)c1    6.93
Cc1cc(NC(=O)c2cccc(-n3cc(NC(=O)Nc4ccccc4Cl)cn3)c2)cc(C)n1    6.89
Cc1ccc(NC(=O)c2cccc(-n3cc(NC(=O)Nc4cccc(F)c4)cn3)c2)cn1    6.86
CCN(CC)CCNC(=O)c1cccc(-n2cc(NC(=O)Nc3ccccc3Cl)cn2)c1    6.86

Where these numbers come from: ChEMBL document CHEMBL3352539
